Reference for the values: the supplement of paper PMC7156485

# System: HCC1569;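 also: TDF denotes transformed human dermal fibroblasts of mesenchymal origin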
# assaySummary: cell number relative to DMSO (% of DMSO); higher = more cells (less growth inhibition / toxicity)
# runConditions: concentration: 10 µM; 24 h
Below, each entry is listed with its recorded cell number.
Quick one: just the number, no unit, thanks!

>>> observed("COC(=O)C1C2CC3c4[nH]c5cc(OC)ccc5c4CCN3CC2CC(OC(=O)c2cc(OC)c(OC)c(OC)c2)C1OC (centres undefined) [Reserpine]")
99.2
>>> observed("c1ccc(-c2n[nH]c3c2oc2ccccc23)cc1")
101
>>> observed("CN1CCN(C2=Nc3ccccc3Oc3ccc(Cl)cc32)CC1.O=C(O)CCC(=O)O [Loxapine succinate]")
101

# ---- query compound ----
Provide the documented cell number with HCC1569 as the system for C#CC1(O)CCC2C3CCC4=Cc5oncc5CC4(C)C3CCC21C (centres undefined) [Danazol]
97
